Cited source for all entries: ChEMBL document CHEMBL5584327

UniProtKB P22303 data, read-out pIC50
Sequence (P22303 whole entry): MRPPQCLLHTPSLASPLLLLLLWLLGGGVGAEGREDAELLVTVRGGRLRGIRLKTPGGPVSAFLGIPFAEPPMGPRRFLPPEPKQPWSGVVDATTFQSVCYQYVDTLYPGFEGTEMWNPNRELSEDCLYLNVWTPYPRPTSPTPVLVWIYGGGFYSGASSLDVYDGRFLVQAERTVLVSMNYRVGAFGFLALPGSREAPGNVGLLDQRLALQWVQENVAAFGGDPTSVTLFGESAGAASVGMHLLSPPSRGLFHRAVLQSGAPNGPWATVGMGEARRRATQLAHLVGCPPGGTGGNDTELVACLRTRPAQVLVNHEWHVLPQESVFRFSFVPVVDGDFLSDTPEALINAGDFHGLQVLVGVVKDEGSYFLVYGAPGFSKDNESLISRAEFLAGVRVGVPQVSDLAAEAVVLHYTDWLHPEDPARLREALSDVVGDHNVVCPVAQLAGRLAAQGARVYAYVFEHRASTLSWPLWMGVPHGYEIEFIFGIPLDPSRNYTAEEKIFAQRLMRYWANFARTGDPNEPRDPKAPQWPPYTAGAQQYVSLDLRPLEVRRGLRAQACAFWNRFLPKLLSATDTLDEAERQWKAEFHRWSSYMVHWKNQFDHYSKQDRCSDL
// pIC50 is dimensionless: -log10 of concentration (M)

Observe how each entry below is paired with its result.
> print(dat)
                            chemical.smiles  value.reported
1  C#CCNc1ccccc1-c1cc(-c2ccc(OCCN3CCCCC3)cc2)nc(N)n1            4.40
2  C#CCOc1ccc(-c2cc(-c3ccc(OCC#C)cc3)nc(N)n2)cc1            5.87

// below: pIC50 requested for another molecule
Look up pIC50 for this molecule: `N#Cc1cccnc1N1CCN(c2cc(Oc3cccc4cccnc34)ncn2)CC1` 7.44
